Values were extracted from patent US9815851B2.

# assay system: RORγ ligand binding domain (LBD) (Homo sapiens, UniProt P51449)
# Construct: made in house; host or cells: E. coli BL-21 (BL3), vector pDEST15
# Sequence (P51449 269-508 limits assumed): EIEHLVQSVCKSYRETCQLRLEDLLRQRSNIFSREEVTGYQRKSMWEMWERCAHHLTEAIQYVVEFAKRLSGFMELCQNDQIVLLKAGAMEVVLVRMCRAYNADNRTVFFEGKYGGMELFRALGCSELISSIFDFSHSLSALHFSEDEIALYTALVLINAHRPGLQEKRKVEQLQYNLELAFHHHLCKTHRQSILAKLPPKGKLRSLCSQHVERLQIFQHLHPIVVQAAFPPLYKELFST
# test method notes: TR-FRET Activity Assay (ligand sensing, RORγ-LBD / coactivator peptide interaction, LANCE)
# Format: biochemical
# test context: first value of the cell FRET/FF/REN; TR-FRET activity assay; read-out: pIC50 (FRET) (converted)
For each record, check the reported IC50: if it is below 500 nM write Satisfied, else write Not satisfied.

Illustrative cases are given below, each with its answer.
Cc1c(C(=O)N[C@H]2C[C@H](C(=O)O)C2)cc(-c2cc(Cl)cc(C3(C)CC3)c2)n1CC1CCCCC1 [17/299]: Not satisfied
CC(C)(C)NS(=O)(=O)c1ccc(-c2cc(C(=O)NCCC(C)(C)C(=O)O)c(F)n2CC2CCCCC2)c2ccccc12 [20/9]: Not satisfied
Cc1c(C(=O)NC2CCOCC2)cc(-c2ccc(-c3cnn(C(C)(C)C)c3)c(C(C)(C)C)c2)n1CC1CCCCC1 [26/2]: Satisfied
Cc1c(C(=O)NCC(C)(C)NC(=O)CO)cc(-c2cc(C(C)(C)C)c3c(c2)C2(CCO3)CC2)n1CC1CCCCC1 [17/30]: Satisfied

Proceed to the following item.
For Cc1c(C(=O)NC2CCOCC2)cc(-c2cc3c(c(C(C)(C)C)c2)OCCC3O)n1CC1CCCCC1 (stereo not shown) [17/105] , is the recorded IC50 below the cut-off of 500 nM?
Not satisfied

---

# reported IC50; entries follow
# assay system: RORγ ligand binding domain (LBD) (Homo sapiens, UniProt P51449)
# Construct: made in house; host or cells: E. coli BL-21 (BL3), vector pDEST15
# test method notes: TR-FRET Activity Assay (ligand sensing, RORγ-LBD / coactivator peptide interaction, LANCE)
# Type: biochemical
# test context: first value of the cell FRET/FF/REN; TR-FRET activity assay; read-out: pIC50 (FRET) (converted)
Give a bare numeral; the unit nM is implied.

In the examples that follow, each entry is paired with its recorded IC50.
Cc1c(C(=O)NCC(C)(C)O)cc(-c2ccc(S(=O)(=O)NC(C)(C)C)c3ccccc23)n1CC1CCC(F)CC1 (stereo not shown) [17/374]: 1580
Cc1c(C(=O)N[C@H]2C[C@H](C(=O)O)C2)cc(-c2cc(C(=O)NC(C)(C)C(F)(F)F)cc(C3(C)CC3)c2)n1CC1CCCCC1 [17/360]: 6310
Cc1c(C(=O)NCC(C)(C)O)cc(-c2cc(C(C)(C)C)cc(C(C)(C)C)c2)n1S(=O)(=O)N1CCCCC1 [7/7]: 398

// next item, IC50 requested
Let me know recorded IC50 for Cc1c(C(=O)NCC(C)(C)O)cc(-c2cc(C(=O)N(C)C(C)(C)C)cc(C3(C)CC3)c2)n1CC1CCCCC1 [1/110] , thanks.
794

---

# assay system: RORγ (UniProt P51449)
# test method notes: RORγ Gal4 Reporter Gene Assay in 293T cells (firefly and renilla luciferase)
# Type: cell-based, human
# test context: second value of the cell; Gal4 reporter gene assay in 293T cells, firefly luciferase
Measured pIC50 (FF) values are reported for all entries that follow.
I'd appreciate a reply containing only the number, no unit.

Below: 2 compounds and their reported pIC50 (FF).
Cc1c(C(=O)N2CCC(C)(C(=O)O)CC2)cc(-c2ccc(S(=O)(=O)NC(C)(C)C)c(C(F)(F)F)c2)n1CC1CCCCC1 [17/224]: 7.1
CCC(C)(C)NS(=O)(=O)c1ccc(-c2cc(C(=O)NC3CCOCC3)c(C)n2CC2CCCCC2)cc1C(F)(F)F [17/83]: 8.2

Below: the item to evaluate.
Please report pIC50 (FF) with RORγ (UniProt P51449) for item Cc1c(C(=O)N2CC3(CCOCC3)C2)cc(-c2ccc(S(=O)(=O)NC(C)(C)C)c(C(F)(F)F)c2)n1CC1CCCCC1 [17/211] .
8.0

---

# assay system: RORγ (UniProt P51449)
# test method notes: RORγ Gal4 Reporter Gene Assay in 293T cells (firefly and renilla luciferase)
# Format: cell-based, human
# test context: second value of the cell; Gal4 reporter gene assay in 293T cells, firefly luciferase
value kind: pIC50 (FF)
Hey, just send me the number, nothing else.

Answered cases to consult:
Cc1c(C(=O)NC2CCOCC2)cc(-c2cc(C(C)(C)O)cc(C3(C)CC3)c2)n1CC1CCCCC1: 7.1
Cc1c(C(=O)NCCC(C)(C)C(=O)O)cc(-c2ccc(S(=O)(=O)N[C@@H](C)C(F)(F)F)c(C(C)(C)C)c2)n1CC1CCCCC1: 8.2
Cc1c(C(=O)NC2CCOCC2)cc(-c2cc(C(F)(F)F)cc(C3(C)CC3)c2)n1CC1CCCCC1: 7.2

Report measured pIC50 (FF); entry is Cc1c(C(=O)NC2CCOCC2)cc(-c2ccc(S(=O)(=O)NC(C)(C)C)c3c(F)cccc23)n1CC1CCCCC1
7.4

---

# assay system: RORγ (UniProt P51449)
# test method notes: RORγ Gal4 Reporter Gene Assay in 293T cells (firefly and renilla luciferase)
# Format: cell-based, human
# test context: third value of the cell; Gal4 reporter gene assay in 293T cells, renilla normalised luciferase
# reported pIC50 (REN); entries follow
// keep it numeric: no unit symbol after the value

Cc1c(C(=O)NCCCCC(=O)O)cc(-c2cc(C(C)(C)C)cc(C(C)(C)C)c2)n1CC1CCCCC1: 7.2
Cc1c(C(=O)N[C@H]2C[C@H](C(=O)O)C2)cc(-c2ccc(S(=O)(=O)NC(C)(C)C)c(C(F)(F)F)c2)n1CC1CCCCC1: 6.6
Cc1c(C(=O)NC2COC2)cc(-c2cc(C(F)(F)F)c3c(c2)C2(CCO3)CC2)n1CC1CCCCC1: 6.8

Alright, here's another compound for you.
Supply recorded pIC50 (REN) for Cc1c(C(=O)N[C@@H]2CCCOC2)cc(-c2ccc(S(=O)(=O)NC(C)(C)C)c(C(F)(F)F)c2)n1CC1CCCCC1 here.
7.3

---

Recorded pIC50 (FF) by entry
# assay system: RORγ (UniProt P51449)
# test method notes: RORγ Gal4 Reporter Gene Assay in 293T cells (firefly and renilla luciferase)
# Format: cell-based, human
# test context: second value of the cell; Gal4 reporter gene assay in 293T cells, firefly luciferase

Cc1c(C(=O)NC2CCOCC2)cc(-c2cc3c(c(C(C)(C)C)c2)OCCC3=O)n1CC1CCCCC1 [17/104]: 6.5

Identify measured pIC50 (FF) associated with Cc1c(C(=O)NC2CCOCC2)cc(-c2ccc(S(=O)(=O)NC(C)(C)CO)c(C(F)(F)F)c2)n1CC1CCCCC1 [17/107]
6.9

Note pIC50 (FF) for the molecule shown: Cc1c(C(=O)NC2COC2)cc(-c2cc(C(C)(C)C)cc(C(C)(C)C)c2)n1S(=O)(=O)N1CC(C)CC(C)C1 (stereo not shown) [7/3]
6.6

Please look at this molecule and report its pIC50 (FF): Cc1c(S(=O)(=O)NC(C)(C)C)ccc(-c2cc(C(=O)NC3CCOCC3)c(C)n2CC2CCCCC2)c1Cl [17/274]
7.9

---

Catalogue of pIC50 (REN) readings, one per entry.
# assay system: UniProt:P51449
# test method notes: RORγ Gal4 Reporter Gene Assay in 293T cells (firefly and renilla luciferase)
# Format: cell-based, human
# test context: third value of the cell; Gal4 reporter gene assay in 293T cells, renilla normalised luciferase
Give the figure only, with no unit attached.

Cc1c(C(=O)NC2CCOCC2)cc(-c2ccc(S(=O)(=O)NC(C)(C)C)c(C(F)(F)F)c2)n1CC1CC(F)(F)C1: 6.3
Cc1c(C(=O)NCC(C)(C)C(=O)O)cc(-c2cc(C(=O)NC(C)(C)C)cc(C3(C)CC3)c2)n1CC1CCCCC1: 7.2

With those in mind, consider the next molecule.
Tell me its pIC50 (REN) given Cc1c(C(=O)N[C@H]2C[C@H](C(=O)O)C2)cc(-c2cc(C(F)(F)F)cc(C3(C)CC3)c2)n1CC1CCCCC1 as the entry.
7.6

---

# assay system: RORγ ligand binding domain (LBD) (Homo sapiens)
# Construct: made in house; host or cells: E. coli BL-21 (BL3), vector pDEST15
# Sequence (P51449 269-508 limits assumed): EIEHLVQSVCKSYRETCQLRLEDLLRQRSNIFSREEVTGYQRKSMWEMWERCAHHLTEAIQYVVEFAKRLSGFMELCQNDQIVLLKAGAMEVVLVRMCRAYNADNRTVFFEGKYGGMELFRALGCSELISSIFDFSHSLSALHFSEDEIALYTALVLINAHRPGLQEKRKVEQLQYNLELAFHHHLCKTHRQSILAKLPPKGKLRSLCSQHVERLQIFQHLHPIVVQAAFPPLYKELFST
# test method notes: TR-FRET Activity Assay (ligand sensing, RORγ-LBD / coactivator peptide interaction, LANCE)
# Assay type: biochemical
# test context: first value of the cell FRET/FF/REN; TR-FRET activity assay; read-out: pIC50 (FRET) (converted)
value kind: IC50

Reference set, count: 5
Cc1c(C(=O)N[C@H]2C[C@H](C(=O)O)C2)cc(-c2cc(C(C)(C)C)nc(C(C)(C)C)n2)n1CC1CCCCC1 [17/354]: 1000 nM
Cc1c(C(=O)NCC2(C(N)=O)CCOCC2)cc(-c2ccc(S(=O)(=O)NC(C)(C)C)c(C(F)(F)F)c2)n1CC1CCCCC1 [17/203]: 501 nM
Cc1c(S(=O)(=O)NC(C)(C)C)ccc(-c2cc(C(=O)NCC(C)(C)O)c(C)n2CC2CCCCC2)c1Cl [17/291]: 398 nM
Cc1c(C(=O)NCC2(C(=O)O)CCOCC2)cc(-c2cc(C(C)(C)C)c3c(c2)C2(CCO3)CC2)n1CC1CCCCC1 [17/40]: 1260 nM
CC(=NO)c1cc(-c2cc(C(=O)NC3CCOCC3)c(C)n2CC2CCCCC2)cc(C(C)(C)C)c1 [18/1]: 794 nM

Tell us which IC50 value is on record for CNC(=O)C1(CNC(=O)c2cc(-c3ccc(S(=O)(=O)NC(C)(C)C)c(C(F)(F)F)c3)n(CC3CCCCC3)c2C)CCOCC1 [17/205]
794 nM

Kindly indicate its recorded IC50. Item: Cc1c(C(=O)N[C@H]2C[C@H](C(=O)O)C2)cc(-c2cc(C(=O)NC(C)(C)C)nc(C3(C)CC3)n2)n1CC1CCCCC1 [17/372]
3160 nM
